- System: various cell lines of different tumor origins
- assay_method_text: Inhibition of cell proliferation, InCell Analyzer assay
- Type: cell-based
- measurement_parameters: Homo sapiens, NCI-H295R, Cervix
test_readout: IC50

smi=COc1cc(N2CCC(N3CCCCC3)CC2)ccc1Nc1nccc(-c2c(-c3cccc(C(=O)Nc4c(F)cccc4F)c3)nc3ccccn23)n1 measured_value="> 5 µM"

====

- measured_target: human IGF-1R (NIH-3T3 cells over expressing human IGF-1R) (Homo sapiens, UniProt P08069)
- Sequence (P08069 31-1367): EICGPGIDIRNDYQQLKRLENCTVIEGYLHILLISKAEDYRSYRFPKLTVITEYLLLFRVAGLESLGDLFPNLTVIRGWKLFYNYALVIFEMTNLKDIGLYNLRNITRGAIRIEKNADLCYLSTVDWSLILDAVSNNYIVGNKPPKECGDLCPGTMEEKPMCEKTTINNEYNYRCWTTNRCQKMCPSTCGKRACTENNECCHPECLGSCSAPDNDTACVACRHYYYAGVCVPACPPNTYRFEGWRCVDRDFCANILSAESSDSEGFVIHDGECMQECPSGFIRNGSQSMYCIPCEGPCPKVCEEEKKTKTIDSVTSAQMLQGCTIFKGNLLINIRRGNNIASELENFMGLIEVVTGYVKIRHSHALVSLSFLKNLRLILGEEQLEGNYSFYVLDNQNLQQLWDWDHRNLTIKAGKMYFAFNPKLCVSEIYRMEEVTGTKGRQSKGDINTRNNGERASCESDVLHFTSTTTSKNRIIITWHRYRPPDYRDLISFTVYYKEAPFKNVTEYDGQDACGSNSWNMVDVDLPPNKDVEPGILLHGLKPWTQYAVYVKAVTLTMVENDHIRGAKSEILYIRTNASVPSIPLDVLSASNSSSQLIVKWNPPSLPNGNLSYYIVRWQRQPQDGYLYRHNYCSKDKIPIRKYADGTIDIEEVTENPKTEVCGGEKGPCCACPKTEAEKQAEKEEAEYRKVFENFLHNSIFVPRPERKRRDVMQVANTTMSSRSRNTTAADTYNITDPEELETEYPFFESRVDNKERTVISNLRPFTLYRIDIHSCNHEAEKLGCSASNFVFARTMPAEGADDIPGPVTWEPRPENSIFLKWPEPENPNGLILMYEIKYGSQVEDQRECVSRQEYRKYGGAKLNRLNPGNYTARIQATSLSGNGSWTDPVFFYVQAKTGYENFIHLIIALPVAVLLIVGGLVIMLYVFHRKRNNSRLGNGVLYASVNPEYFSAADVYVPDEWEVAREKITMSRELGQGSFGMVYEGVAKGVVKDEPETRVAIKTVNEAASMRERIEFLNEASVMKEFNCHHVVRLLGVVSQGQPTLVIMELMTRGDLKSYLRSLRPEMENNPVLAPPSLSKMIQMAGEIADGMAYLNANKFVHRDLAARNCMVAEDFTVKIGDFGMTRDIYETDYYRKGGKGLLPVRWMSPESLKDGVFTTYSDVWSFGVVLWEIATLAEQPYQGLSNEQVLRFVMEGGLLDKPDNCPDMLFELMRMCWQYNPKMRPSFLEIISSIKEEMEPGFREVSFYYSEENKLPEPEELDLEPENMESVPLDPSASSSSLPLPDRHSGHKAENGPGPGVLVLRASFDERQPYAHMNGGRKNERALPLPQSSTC
- assay_method_text: IGF-1R cellular autophosphorylation (DELFIA)
- measurement_parameters: IGF-1 stimulated
pIC50: −log10 of the molar value.
Overview of recorded pIC50 for various molecules
test_readout: pIC50

smi=COc1ccn2c(-c3ccnc(Nc4cccc(OCCN(C)C)c4)n3)c(-c3cccc(C(=O)Nc4ccc(F)cc4F)c3)nc2c1 measured_value="> 7.00"
smi=COc1cc(N2CCC(N3CCN(S(C)(=O)=O)CC3)CC2)ccc1Nc1nccc(-c2c(-c3ccc(OC(C)C)c(C(=O)Nc4c(F)cccc4F)c3)nc3ccccn23)n1 measured_value="> 7.00"
smi=COc1cc(CCCN2CCN(C)CC2)ccc1Nc1nccc(-c2c(-c3cccc(C(=O)Nc4c(F)cccc4F)c3)nc3ccccn23)n1 measured_value="6.30 to 7.00"
smi=COc1cc(N2CCC(N3CCOCC3)CC2)ccc1Nc1nccc(-c2c(-c3cccc(C(=O)Nc4c(F)cccc4F)c3)nc3ccccn23)n1 measured_value="> 7.00"
smi=CCOc1cc(N2CCC(N3CCN(CCS(C)(=O)=O)CC3)CC2)ccc1Nc1nccc(-c2c(-c3cccc(C(=O)Nc4c(F)cccc4F)c3)nc3ccccn23)n1 measured_value="> 7.00"
smi=COc1cc(N2CCC(N3CCN(S(C)(=O)=O)CC3)CC2)ccc1Nc1nccc(-c2c(-c3cccc(C(=O)Nc4c(F)cccc4F)c3)nc3c(F)cccn23)n1 measured_value="> 7.00"
smi=COc1cc(-c2nnc(CN(C)C)o2)ccc1Nc1nccc(-c2c(-c3ccc(OC)c(C(=O)Nc4c(F)cccc4F)c3)nc3ccccn23)n1 measured_value="> 7.00"
smi=CCCN1CCN(c2ccc(Nc3nccc(-c4c(-c5ccc(OC)c(C(=O)Nc6c(F)cccc6F)c5)nc5ccccn45)n3)c(OC)c2)CC1 measured_value="> 7.00"
smi=COc1cc(N2CCC(N3CCCCC3)CC2)ccc1Nc1nccc(-c2c(-c3cccc(C(=O)Nc4c(F)cccc4F)c3)nc3cc(F)ccn23)n1 measured_value="> 7.00"
smi=COc1cc(N2CCC(N3CCCCC3)CC2)ccc1Nc1nccc(-c2c(-c3ccc(OC)c(C(=O)Nc4c(F)cccc4F)c3)nc3cc(F)ccn23)n1 measured_value="> 7.00"
smi=CCOc1cc(N2CCN(CCS(C)(=O)=O)CC2)ccc1Nc1nccc(-c2c(-c3cccc(C(=O)Nc4c(F)cccc4F)c3)nc3ccccn23)n1 measured_value="6.30 to 7.00"
smi=CCOc1cc(N2CCC(N3CCN(S(C)(=O)=O)CC3)CC2)ccc1Nc1nccc(-c2c(-c3ccc(OC)c(C(=O)Nc4c(F)cccc4F)c3)nc3ccccn23)n1 measured_value="> 7.00"

====

- Tested on: various cell lines of different tumor origins
- assay_method_text: Inhibition of cell proliferation, InCell Analyzer assay
- Type: cell-based
- measurement_parameters: Homo sapiens, 647-V, Bladder
test_readout: IC50

molecule="COc1cc(N2CCC(N3CCCCC3)CC2)ccc1Nc1nccc(-c2c(-c3cccc(C(=O)Nc4c(F)cccc4F)c3)nc3ccccn23)n1 [Example 22]" test_readout=IC50 measured_value="1000 to 5000 nM"

====

- Tested on: various cell lines of different tumor origins
- assay_method_text: Inhibition of cell proliferation, InCell Analyzer assay
- Format: cell-based
- measurement_parameters: Homo sapiens, NCI-H522, NCI-H522, Lung
test_readout: IC50

smi=COc1cc(N2CCC(N3CCCCC3)CC2)ccc1Nc1nccc(-c2c(-c3cccc(C(=O)Nc4c(F)cccc4F)c3)nc3ccccn23)n1 measured_value="1000 to 5000 nM"

====

- Tested on: various cell lines of different tumor origins
- assay_method_text: Inhibition of cell proliferation, InCell Analyzer assay
- Format: cell-based
- measurement_parameters: Homo sapiens, IGROV-1, IGROV1, Ovary
pIC50: −log10 of the molar value.
test_readout: pIC50

smi=COc1cc(N2CCC(N3CCCCC3)CC2)ccc1Nc1nccc(-c2c(-c3cccc(C(=O)Nc4c(F)cccc4F)c3)nc3ccccn23)n1 measured_value="> 6.00"

====

- measured_target: human IGF-1R (NIH-3T3 cells over expressing human IGF-1R) (Homo sapiens, UniProt P08069)
- assay_method_text: IGF-1R cellular autophosphorylation (DELFIA)
- measurement_parameters: IGF-1 stimulated
Overview of recorded IC50 for various compounds
test_readout: IC50

smi=COc1cc(N2CCC(N3CCN(CCS(C)(=O)=O)CC3)CC2)ccc1Nc1nccc(-c2c(-c3cccc(C(=O)Nc4c(F)cccc4F)c3)nc3ccccn23)n1 measured_target="human IGF-1R (NIH-3T3 cells over expressing human IGF-1R) (Homo sapiens, UniProt P08069)" measured_value="< 0.1 µM"
smi=CCc1cc(Nc2nccc(-c3c(-c4ccc(OC)c(C(=O)Nc5c(F)cccc5F)c4)nc4ccccn34)n2)c(OC)cc1N1CCC(N2CCN(S(C)(=O)=O)CC2)CC1 measured_target="human IGF-1R (NIH-3T3 cells over expressing human IGF-1R) (Homo sapiens, UniProt P08069)" measured_value="< 0.1 µM"
smi=CCOc1cc(N2CCC(CCS(C)(=O)=O)CC2)c(C)cc1Nc1nccc(-c2c(-c3ccc(OCC)c(C(=O)Nc4c(F)cccc4F)c3)nc3ccccn23)n1 measured_target="human IGF-1R (NIH-3T3 cells over expressing human IGF-1R) (Homo sapiens, UniProt P08069)" measured_value="< 0.1 µM"
smi=COc1cc(N2CCC(N(C)C)CC2)ccc1Nc1nccc(-c2c(-c3cccc(C(=O)Nc4c(F)cccc4F)c3)nc3ccccn23)n1 measured_target="human IGF-1R (NIH-3T3 cells over expressing human IGF-1R) (Homo sapiens, UniProt P08069)" measured_value="< 0.1 µM"
smi=COCCN1CCN(c2cc(OC)c(Nc3nccc(-c4c(-c5cccc(C(=O)Nc6c(F)cccc6F)c5)nc5ccccn45)n3)cc2C)CC1 measured_target="human IGF-1R (NIH-3T3 cells over expressing human IGF-1R) (Homo sapiens, UniProt P08069)" measured_value="< 0.1 µM"
smi=COc1cc(CCN2CCCCC2)c(F)cc1Nc1nccc(-c2c(-c3cccc(C(=O)Nc4c(F)cccc4F)c3)nc3ccccn23)n1 measured_target="human IGF-1R (NIH-3T3 cells over expressing human IGF-1R) (Homo sapiens, UniProt P08069)" measured_value="0.1 to 0.5 µM"

====

- Tested on: various cell lines of different tumor origins
- assay_method_text: Inhibition of cell proliferation, InCell Analyzer assay
- Type: cell-based
- measurement_parameters: Homo sapiens, BHT-101, BHT-101, Thyroid
- Experimental: C. Inhibition of Cell Proliferation For InCell Analyser assay, various cell lines of different tumor origins were grown to 70-80% confluency in appropriate culture media containing 10% fetal bovine serum at 37° C. in a 5% CO2 incubator. […] By counting the number of nuclei, the proliferation index of compound treated groups were calculated as a percentage relative to the DMSO control, which was set to 100%. The IC50 values were calculated using model 205 in ExcelFit.
test_readout: IC50

compound="COc1cc(N2CCC(N3CCCCC3)CC2)ccc1Nc1nccc(-c2c(-c3cccc(C(=O)Nc4c(F)cccc4F)c3)nc3ccccn23)n1 [Example 22]" measured_target="various cell lines of different tumor origins" measured_value="> 5 µM"

====

- measured_target: IR (NIH-3T3 cells over expressing human IGF-1R or IR) (Homo sapiens)
- Sequence (P06213 28-1382): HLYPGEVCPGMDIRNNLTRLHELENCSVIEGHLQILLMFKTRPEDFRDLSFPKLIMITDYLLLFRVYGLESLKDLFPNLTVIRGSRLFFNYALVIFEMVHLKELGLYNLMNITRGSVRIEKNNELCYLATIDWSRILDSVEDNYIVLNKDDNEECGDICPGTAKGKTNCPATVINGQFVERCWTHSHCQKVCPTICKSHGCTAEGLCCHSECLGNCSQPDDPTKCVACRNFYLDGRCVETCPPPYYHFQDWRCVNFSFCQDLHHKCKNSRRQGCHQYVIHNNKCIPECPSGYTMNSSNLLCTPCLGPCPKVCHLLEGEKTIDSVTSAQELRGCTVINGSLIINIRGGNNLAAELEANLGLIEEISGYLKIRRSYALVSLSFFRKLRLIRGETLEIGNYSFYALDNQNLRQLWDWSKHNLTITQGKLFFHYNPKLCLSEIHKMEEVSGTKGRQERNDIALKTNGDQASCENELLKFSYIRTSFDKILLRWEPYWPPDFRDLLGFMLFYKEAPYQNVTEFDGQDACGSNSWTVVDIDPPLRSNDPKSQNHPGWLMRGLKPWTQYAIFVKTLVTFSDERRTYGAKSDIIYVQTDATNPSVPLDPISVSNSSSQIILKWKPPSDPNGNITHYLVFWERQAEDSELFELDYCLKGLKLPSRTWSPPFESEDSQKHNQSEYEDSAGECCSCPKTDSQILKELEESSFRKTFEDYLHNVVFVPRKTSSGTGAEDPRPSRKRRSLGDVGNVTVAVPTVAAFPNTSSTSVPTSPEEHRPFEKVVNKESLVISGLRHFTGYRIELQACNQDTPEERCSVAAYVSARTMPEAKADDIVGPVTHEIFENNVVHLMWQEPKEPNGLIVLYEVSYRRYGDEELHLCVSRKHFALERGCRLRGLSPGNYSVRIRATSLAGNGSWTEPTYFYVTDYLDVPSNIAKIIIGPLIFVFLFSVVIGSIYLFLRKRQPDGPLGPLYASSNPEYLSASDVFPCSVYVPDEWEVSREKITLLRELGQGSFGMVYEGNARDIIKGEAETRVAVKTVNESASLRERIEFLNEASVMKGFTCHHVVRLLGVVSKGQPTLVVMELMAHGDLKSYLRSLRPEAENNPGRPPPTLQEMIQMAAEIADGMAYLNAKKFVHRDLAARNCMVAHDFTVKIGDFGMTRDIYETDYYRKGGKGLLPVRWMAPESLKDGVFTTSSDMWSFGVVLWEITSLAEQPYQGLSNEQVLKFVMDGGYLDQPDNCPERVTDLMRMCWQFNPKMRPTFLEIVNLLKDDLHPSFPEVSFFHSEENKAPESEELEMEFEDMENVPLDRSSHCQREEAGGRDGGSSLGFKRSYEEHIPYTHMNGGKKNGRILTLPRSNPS
- assay_method_text: IR cellular autophosphorylation (DELFIA)
- measurement_parameters: NIH-3T3 cells over expressing IR, insulin stimulated
pIC50: −log10 of the molar value.
test_readout: pIC50

molecule="CCOc1cc(N2CCN(CCS(C)(=O)=O)CC2)c(C)cc1Nc1nccc(-c2c(-c3cccc(C(=O)Nc4c(F)cccc4F)c3)nc3ccccn23)n1 [Example 246]" measured_target="IR (NIH-3T3 cells over expressing human IGF-1R or IR) (Homo sapiens)" measured_value="> 7.00"
molecule="CCCN1CCC(c2cc(OC)c(Nc3nccc(-c4c(-c5ccc(OC)c(C(=O)Nc6c(F)cccc6F)c5)nc5ccccn45)n3)cc2C)CC1 [Example 157]" measured_target="IR (NIH-3T3 cells over expressing human IGF-1R or IR) (Homo sapiens)" measured_value="> 7.00"
molecule="CCCc1cc(N2CCC(N3CCCCC3)CC2)ccc1Nc1nccc(-c2c(-c3cccc(C(=O)Nc4c(F)cccc4F)c3)nc3ccccn23)n1 [Example 41]" measured_target="IR (NIH-3T3 cells over expressing human IGF-1R or IR) (Homo sapiens)" measured_value="6.30 to 7.00"
molecule="CCOc1cc(N2CCC(N3CCN(S(C)(=O)=O)CC3)CC2)ccc1Nc1nccc(-c2c(-c3cccc(C(=O)Nc4c(F)cccc4F)c3)nc3ccccn23)n1 [Example 224]" measured_target="IR (NIH-3T3 cells over expressing human IGF-1R or IR) (Homo sapiens)" measured_value="> 7.00"
molecule="COc1cc(N2CCN(CCS(C)(=O)=O)CC2)c(C)cc1Nc1nccc(-c2c(-c3cccc(C(=O)Nc4c(F)cccc4F)c3)nc3ccccn23)n1 [Example 148]" measured_target="IR (NIH-3T3 cells over expressing human IGF-1R or IR) (Homo sapiens)" measured_value="> 7.00"
molecule="COc1cc(N2CCC(N3CCN(CCF)CC3)CC2)ccc1Nc1nccc(-c2c(-c3cccc(C(=O)Nc4c(F)cccc4F)c3)nc3cc(C(F)(F)F)ccn23)n1 [Example 189]" measured_target="IR (NIH-3T3 cells over expressing human IGF-1R or IR) (Homo sapiens)" measured_value="< 6.30"
